- System tested: human recombinant cathepsin V (Homo sapiens, UniProt O60911)
- Construct: with a 100 nM final concentration of each active cathepsin for 30 min; made in house
- Sequence (O60911 114-334): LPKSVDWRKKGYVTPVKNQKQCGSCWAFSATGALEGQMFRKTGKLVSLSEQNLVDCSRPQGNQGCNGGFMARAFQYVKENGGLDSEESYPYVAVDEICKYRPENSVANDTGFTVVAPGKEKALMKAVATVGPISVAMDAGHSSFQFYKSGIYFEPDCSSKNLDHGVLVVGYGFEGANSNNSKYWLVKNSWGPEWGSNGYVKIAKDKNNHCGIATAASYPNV
- Assay info: Substrate hydrolysis kinetics (kcat, KM, kcat/KM) of ACC-labeled substrates
- Type: biochemical
- Reported conditions: cathepsin V 200 nM; pH 5.5, 37 °C; Michaelis–Menten; average of at least triplicate, S.D. below 15%
- Protocol: All kinetic experiments were performed using a CLARIOStar (BMG LABTECH) plate reader operating in fluorescence kinetic mode using 96-well plates (Corning®, Costar®). ACC-labeled fluorescent substrates were screened at 355 nm (excitation) and 460 nm (emission) wavelengths (gain 650). […] The kinetic parameters for all ACC-labeled substrates were determined using Michaelis–Menten kinetic according to the protocol described by Poreba et al.[41] […]
Square brackets hold non-standard residues; d marks the D form. * marks the point of attachment. Phe(4-Cl) = N[C@@H](Cc1ccc(Cl)cc1)C(=O)O; ACC = NC(=O)Cc1cc(=O)oc2cc(N*)ccc12; hTyr = N[C@@H](CCc1ccc(O)cc1)C(=O)O; Cha = N[C@@H](CC1CCCCC1)C(=O)O; hSer = N[C@@H](CCO)C(=O)O; Nva = CCC[C@H](N)C(=O)O; OBn = c1ccc(CO*)cc1; Bn = c1ccc(C*)cc1
Assay endpoint: kcat/KM Cat V

| Substance | kcat/KM Cat V |
| --- | --- |
| Ac-[Nva][Cha]E(OBn)R-{ACC} (SMILES CCC[C@H](NC(C)=O)C(=O)N[C@@H](CC1CCCCC1)C(=O)N[C@@H](CCC(=O)OCc1ccccc1)C(=O)N[C@@H](CCCNC(=N)N)C(=O)Nc1ccc2c(CC(N)=O)cc(=O)oc2c1) [ACC-labeled tetrapeptide substrate] | 1,420 M^-1s^-1 |
| Ac-[Cha]L[hSer](Bn)R-{ACC} (SMILES CC(=O)N[C@@H](CC1CCCCC1)C(=O)N[C@@H](CC(C)C)C(=O)N[C@@H](CCOCc1ccccc1)C(=O)N[C@@H](CCCNC(=N)N)C(=O)Nc1ccc2c(CC(N)=O)cc(=O)oc2c1) [ACC-labeled tetrapeptide substrate] | 518 M⁻¹ s⁻¹ |
| Ac-[hTyr]LE(OBn)R-{ACC} (SMILES CC(=O)N[C@@H](CCc1ccc(O)cc1)C(=O)N[C@@H](CC(C)C)C(=O)N[C@@H](CCC(=O)OCc1ccccc1)C(=O)N[C@@H](CCCNC(=N)N)C(=O)Nc1ccc2c(CC(N)=O)cc(=O)oc2c1) [ACC-labeled tetrapeptide substrate] | 692 M⁻¹ s⁻¹ |

Next:
In: For the substance Ac-[Phe(4-Cl)]L[hSer](Bn)R-{ACC} (SMILES CC(=O)N[C@@H](Cc1ccc(Cl)cc1)C(=O)N[C@@H](CC(C)C)C(=O)N[C@@H](CCOCc1ccccc1)C(=O)N[C@@H](CCCNC(=N)N)C(=O)Nc1ccc2c(CC(N)=O)cc(=O)oc2c1) [ACC-labeled tetrapeptide substrate] , give its measured kcat/KM Cat V value.
Out: 570 M⁻¹ s⁻¹
